target_entity: T1, His-tagged P3028 (human, also: His tag, length and end not given here)
T1 construct: in solution at 0.5 ug/mL, detected with mouse anti-His antibody and rabbit anti-mouse peroxidase (rampo); also called PGE73; His-tag-P3028; not shown: His tag
T1 peptide: VFDEFKPLVEEPQNLIK
method: PEPSCAN ELISA, peptide on chip;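 note: binding detected by peroxidase ELISA with ABTS, OD405 colour imaged by CCD camera before and after staining, raw OD405 reported as rampo units, air-bubble wells scored 0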
Ends that are not written are not given here.
Recorded RAMPO Score values for a group of binders are listed next.
readout: RAMPO Score (rampo units)

binder="KKLDTFFVKLSTFTER [SEQ ID NO 358]" endpoint_unit="rampo units" observed_result=437
binder="KKLDTFFVKLSLATER [SEQ ID NO 361]" endpoint_unit="rampo units" observed_result=525
binder="VKLDTFFVKLSLFTER [SEQ ID NO 281]" endpoint_unit="rampo units" observed_result=442
binder="KKLDRFFVKLSLFTER [SEQ ID NO 309]" endpoint_unit="rampo units" observed_result=430

Each recorded value in this set is attributed to patent US20180177842A1.
